target: rat TAAR1 (Rattus norvegicus (Rat), UniProt Q923Y9); assay: Radioligand binding assay on rat TAAR1; conditions: rat TAAR1, HEK-293 membranes; second value of the pair (line below); read-out: Ki (μM) mouse/rat
Sequence (Q923Y9 whole entry): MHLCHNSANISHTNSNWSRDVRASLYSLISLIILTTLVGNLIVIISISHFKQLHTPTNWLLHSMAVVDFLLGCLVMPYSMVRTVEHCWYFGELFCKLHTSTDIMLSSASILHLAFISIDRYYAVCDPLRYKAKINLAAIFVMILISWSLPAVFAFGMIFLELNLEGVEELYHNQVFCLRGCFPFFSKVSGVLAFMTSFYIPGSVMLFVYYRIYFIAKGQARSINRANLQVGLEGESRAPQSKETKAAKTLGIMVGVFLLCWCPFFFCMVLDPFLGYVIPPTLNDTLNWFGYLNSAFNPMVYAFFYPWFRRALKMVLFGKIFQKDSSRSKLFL
Structures can show the parent of a compound that is named as a salt.
Exam item: assign MET to entries whose Ki is below 0.009 µM and NOT MET to entries at or above 0.009 µM. Note that a value of exactly 0.009 µM receives NOT MET.

# Compound, Label class
rows = [
    ("O=C(Nc1ccc([C@H]2CNCCO2)c(F)c1)c1cnn(-c2cncc(C(F)(F)F)n2)c1 [Example 127, hydrochloride]", "MET"),
    ("Cc1cc(C(=O)Nc2ccc([C@H]3CNCCO3)cc2F)cc(C#N)n1 [Example 113, hydrochloride]", "NOT MET"),
    ("O=C(Nc1ccc(C(F)(F)F)cn1)Nc1ccc([C@@H]2CNCCO2)cc1Cl", "MET"),
    ("O=C(Nc1cnc(C(F)(F)F)nc1)Nc1ccc([C@@H]2CNCCO2)cc1Cl", "MET"),
    ("COc1cc(C(=O)Nc2ccc([C@H]3CNCCO3)cc2F)cc(C(N)=O)n1 [Example 120, hydrochloride]", "NOT MET"),
    ("O=C(Nc1ccc(Cl)nc1)Nc1ccc([C@H]2CNCCO2)cc1Cl", "MET"),
    ("N#Cc1ccc(-n2cc(C(=O)Nc3ccc([C@H]4CNCCO4)c(Cl)c3)cn2)cc1 [Example 105, hydrochloride]", "MET"),
    ("N#Cc1cccc(NC(=O)Nc2ccc([C@H]3CNCCO3)cc2F)c1", "MET"),
    ("N#Cc1ccc(-n2cc(C(=O)Nc3ccc([C@H]4CNCCO4)cc3F)cn2)c(F)c1 [Example 110, hydrochloride]", "NOT MET"),
    ("N#Cc1ccc(-n2cc(C(=O)Nc3ccc([C@H]4CNCCO4)cc3F)cn2)cc1 [Example 111, hydrochloride]", "MET"),
    ("N#Cc1ccc(NC(=O)Nc2ccc([C@H]3CNCCO3)cc2Br)cn1", "NOT MET"),
    ("O=C(Nc1ccc([C@@H]2CNCCO2)cc1F)c1n[nH]c2cc(F)ccc12", "MET"),
]
